B1: library; numbered along this chain (parent)
chain: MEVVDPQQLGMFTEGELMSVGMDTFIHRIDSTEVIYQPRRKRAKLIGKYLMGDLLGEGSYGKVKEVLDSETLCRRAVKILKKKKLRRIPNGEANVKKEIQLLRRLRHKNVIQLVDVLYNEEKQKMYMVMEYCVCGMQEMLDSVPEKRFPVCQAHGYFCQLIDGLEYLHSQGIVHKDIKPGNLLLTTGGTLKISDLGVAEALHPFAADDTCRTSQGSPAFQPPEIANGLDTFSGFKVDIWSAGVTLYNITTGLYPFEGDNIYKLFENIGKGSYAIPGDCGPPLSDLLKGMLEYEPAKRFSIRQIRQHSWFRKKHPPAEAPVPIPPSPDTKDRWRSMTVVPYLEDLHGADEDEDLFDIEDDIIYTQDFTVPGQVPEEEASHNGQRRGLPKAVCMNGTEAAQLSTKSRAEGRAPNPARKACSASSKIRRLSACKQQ

Variants of: B1
test_method_notes: STK11 functional score (HeLa growth suppression), rescaled enrichment; synonymous median = 1, nonsense median = 0 (normalised score)
test_parameters: with HeLa; variant type: missense
Please respond with reported STK11 functional score for every item in the list.
Respond with the number and no other words.

What STK11 functional score value was documented for this variant, S283C ?
0.98

What STK11 functional score value was documented for this variant, E293L ?
0.882

What STK11 functional score value was documented for this variant, R28C ?
0.873

What STK11 functional score value was documented for this variant, N393L ?
1.16

What STK11 functional score value was documented for this variant, T189Y ?
0.71

What STK11 functional score value was documented for this variant, E317Y ?
1.04

What STK11 functional score value was documented for this variant, V372T ?
1.5

What STK11 functional score value was documented for this variant, N226Q ?
1.45

What STK11 functional score value was documented for this variant, E291K ?
1.28

What STK11 functional score value was documented for this variant, E33T ?
1.69

What STK11 functional score value was documented for this variant, G171L ?
1.43

What STK11 functional score value was documented for this variant, R75L ?
0.841

What STK11 functional score value was documented for this variant, R310C ?
1.06

What STK11 functional score value was documented for this variant, Q137V ?
1.27

What STK11 functional score value was documented for this variant, S325P ?
1.51

What STK11 functional score value was documented for this variant, V63E ?
0.189

What STK11 functional score value was documented for this variant, S422W ?
1.4

What STK11 functional score value was documented for this variant, I238N ?
1.22

What STK11 functional score value was documented for this variant, G381P ?
1.61

What STK11 functional score value was documented for this variant, N226S ?
0.759

What STK11 functional score value was documented for this variant, A198I ?
-0.192

What STK11 functional score value was documented for this variant, H345R ?
1.58

What STK11 functional score value was documented for this variant, F264G ?
1.01

What STK11 functional score value was documented for this variant, P6D ?
1.66

What STK11 functional score value was documented for this variant, Q159H ?
0.00983

What STK11 functional score value was documented for this variant, N119D ?
0.736

What STK11 functional score value was documented for this variant, A295L ?
0.756

What STK11 functional score value was documented for this variant, D365L ?
1.27

What STK11 functional score value was documented for this variant, E120P ?
1.42

What STK11 functional score value was documented for this variant, K62T ?
1.7

What STK11 functional score value was documented for this variant, S69G ?
1.69

What STK11 functional score value was documented for this variant, Y36A ?
0.73

What STK11 functional score value was documented for this variant, Y126W ?
0.105

What STK11 functional score value was documented for this variant, D284V ?
0.716

What STK11 functional score value was documented for this variant, E265F ?
1.08

What STK11 functional score value was documented for this variant, R28S ?
1.59

What STK11 functional score value was documented for this variant, L427T ?
1.59

What STK11 functional score value was documented for this variant, D330H ?
0.985

What STK11 functional score value was documented for this variant, N380F ?
1.06

What STK11 functional score value was documented for this variant, K329I ?
1.25

What STK11 functional score value was documented for this variant, Q214P ?
0.598

What STK11 functional score value was documented for this variant, E342K ?
1.61

What STK11 functional score value was documented for this variant, P38N ?
0.557

What STK11 functional score value was documented for this variant, S404D ?
1.18

What STK11 functional score value was documented for this variant, N226V ?
0.778

What STK11 functional score value was documented for this variant, Q214H ?
1.39

What STK11 functional score value was documented for this variant, K81F ?
0.987

What STK11 functional score value was documented for this variant, L400I ?
1.55

What STK11 functional score value was documented for this variant, T24V ?
0.875

What STK11 functional score value was documented for this variant, T402N ?
0.935

What STK11 functional score value was documented for this variant, E165L ?
0.448

What STK11 functional score value was documented for this variant, M51I ?
1.16

What STK11 functional score value was documented for this variant, S325L ?
1.57

What STK11 functional score value was documented for this variant, A420G ?
1.52

What STK11 functional score value was documented for this variant, L55F ?
-0.181

What STK11 functional score value was documented for this variant, R426A ?
0.525

What STK11 functional score value was documented for this variant, Y340N ?
1.03

What STK11 functional score value was documented for this variant, L263D ?
0.549

What STK11 functional score value was documented for this variant, T244Q ?
-0.178

What STK11 functional score value was documented for this variant, D365A ?
0.704

What STK11 functional score value was documented for this variant, V34G ?
1.08

What STK11 functional score value was documented for this variant, R304Y ?
-0.17

What STK11 functional score value was documented for this variant, C73D ?
1.49

What STK11 functional score value was documented for this variant, L400Q ?
1.27

What STK11 functional score value was documented for this variant, E374A ?
0.915

What STK11 functional score value was documented for this variant, Q7G ?
0.637

What STK11 functional score value was documented for this variant, D359C ?
1.14

What STK11 functional score value was documented for this variant, E120G ?
1.26

What STK11 functional score value was documented for this variant, I161H ?
-0.2

What STK11 functional score value was documented for this variant, K44L ?
1.36

What STK11 functional score value was documented for this variant, A414E ?
1.54

What STK11 functional score value was documented for this variant, I161R ?
-0.0321

What STK11 functional score value was documented for this variant, L282W ?
0.522

What STK11 functional score value was documented for this variant, T71L ?
0.974

What STK11 functional score value was documented for this variant, Q170F ?
0.834

What STK11 functional score value was documented for this variant, K175F ?
0.988

What STK11 functional score value was documented for this variant, K41H ?
1.44
